target: Angiotensin II-Rezeptor; experiment: Angiotensin II receptor binding (displacement of [125I]-Angiotensin II from rat lung homogenate); conditions: Rattenlunge homogenate; 50 pM [125I]-Angiotensin II; 60 Min. at 37°C; IC50 from dose-response curve
pIC50: −log10 of the molar value.
value_kind: pIC50

The following compounds have reported results that may help.
>  <compound>
CCCc1nc2c(C)cc(-c3cn(C4CCCCCC4)cn3)cc2n1Cc1ccc(-c2ccccc2C(=O)O)cc1

>  <pIC50>
7.82

$$$$
>  <compound>
CCCc1nc2c(C)cc(-c3cn(C)cn3)cc2n1Cc1ccc(-c2ccccc2C(=O)O)cc1 [Substanz A, reference compound]

>  <pIC50>
8.92

$$$$

(I) CCOc1nc2ccc(-c3cn(C(C)C)cn3)cc2n1Cc1ccc(-c2ccccc2C(=O)O)cc1
(II) CCCc1nc2c(C)cc(-c3coc(C)n3)cc2n1Cc1ccc(-c2ccccc2C(=O)O)cc1
(III) CCCc1nc2c(C)cc(-c3cn(CC(N)=O)cn3)cc2n1Cc1ccc(-c2ccccc2C(=O)O)cc1
(IV) CCCc1nc2c(C)cc(-c3cn(CCCN(C)C)cn3)cc2n1Cc1ccc(-c2ccccc2C(=O)O)cc1
Order each entry by recorded pIC50, climbing from the minimum. A ranking is expressed here by listing the labels in the requested order.
II, I, III, IV
(II: 7.40, I: 8.00, III: 8.47, IV: 8.89)

The measured values listed here are drawn from patent EP0552765B1.
